tested on: Canis familiaris; experiment: Increasing effect on vertebral blood flow in anesthetized dogs compared to the effect of trapidil; type: functional, Canis lupus familiaris
Labelling field: enter condition met if recorded Vertebral blood flow is less than 1. Enter condition not met if it equals or exceeds that cut-off.

*Q* In the record for CCCCN(CCN)S(=O)(=O)c1cccc2cnccc12 , is Vertebral blood flow less than 1?
*A* condition met

*Q* In the record for CCN(CCN)S(=O)(=O)c1cccc2cnccc12 , is Vertebral blood flow less than 1?
*A* condition not met

*Q* In the record for CCCCCCNCCNS(=O)(=O)c1cccc2cnccc12 , is Vertebral blood flow less than 1?
*A* condition met

*Q* In the record for CCCNCCNS(=O)(=O)c1cccc2cnccc12 , is Vertebral blood flow less than 1?
*A* condition not met

*Q* In the record for NCCCCCCNS(=O)(=O)c1cccc2cnccc12 , is Vertebral blood flow less than 1?
*A* condition not met

*Q* In the record for CCCCCCN(CCC)CCNS(=O)(=O)c1cccc2cnccc12 , is Vertebral blood flow less than 1?
*A* condition not met

*Q* In the record for CN(C)CCNS(=O)(=O)c1cccc2cnccc12 , is Vertebral blood flow less than 1?
*A* condition not met
